- system: human LPA1 (Homo sapiens)
- Construct: expressed in transfected cells; host or cells: CHO-K1
- Sequence (Q92633 whole entry): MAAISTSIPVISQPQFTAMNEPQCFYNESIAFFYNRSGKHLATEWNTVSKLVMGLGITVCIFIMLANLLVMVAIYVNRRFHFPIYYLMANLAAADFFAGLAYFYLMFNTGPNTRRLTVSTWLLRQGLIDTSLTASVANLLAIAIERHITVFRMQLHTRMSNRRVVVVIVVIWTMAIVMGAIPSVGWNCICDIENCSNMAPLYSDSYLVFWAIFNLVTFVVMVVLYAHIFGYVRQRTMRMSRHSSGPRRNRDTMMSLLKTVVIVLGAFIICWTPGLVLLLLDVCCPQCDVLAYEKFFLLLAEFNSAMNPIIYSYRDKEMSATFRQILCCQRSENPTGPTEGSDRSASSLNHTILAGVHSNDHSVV
- measurement notes: In vitro LPA1 calcium flux antagonist assay - Bioduro protocol
- Assay type: cell-based
- condition context: Table B3; CHO-K1 cells overexpressing human LPA1 and G15a, LPA challenge at EC80; read-out: Activity (IC50 class)
Entries and their IC50

chemical string: COc1cc(-c2ccc(NC3(C(=O)O)CCOCC3)cc2COC2CCCC2)cc(OC)n1
IC50: 100 to 1000 nM
//
chemical string: Cc1ccc(-c2ccc(NC3(C(=O)O)CCOCC3)cc2COC2CC2)c(F)c1OC1CC1
IC50: < 100 nM
//
chemical string: COc1cc(-c2ccc(NC3(C(=O)O)CCOCC3)cc2COC2CCCC2)cc(OC)c1C(F)F
IC50: < 100 nM
//
chemical string: CCOc1cccc(-c2ccc(NC3(C(=O)O)CCOCC3)cc2COC2CCCC2)c1Cl
IC50: < 100 nM

---

Entries and their pIC50
- system: human LPA1 (Homo sapiens)
- Construct: expressed in transfected cells; host or cells: CHO-K1
- measurement notes: In vitro LPA1 calcium flux antagonist assay - Bioduro protocol
- Type: cell-based
- condition context: Table B3; CHO-K1 cells overexpressing human LPA1 and G15a, LPA challenge at EC80; read-out: Activity (IC50 class)
pIC50: −log10 of the molar value.
recorded metric: pIC50

compound: COc1cc(OC2CC2)c(F)c(-c2ccc(NC3(C(=O)O)CCC(F)(F)CC3)cc2COC2CC2)c1
recorded metric: pIC50
measured value: > 7.00
--
compound: COC(=O)N1CCCC(Nc2cc(C)c(-c3cc(OC)cc(OC)c3)c(COC3CCCC3)c2)(C(=O)O)C1 (stereo not shown) [Compound 211]
recorded metric: pIC50
measured value: < 6.00
--
compound: COc1cc(-c2ccc(OC3(C(=O)O)CCOCC3)cc2CO[C@H]2CCOC2)c(F)c(OC)c1C
recorded metric: pIC50
measured value: 6.00 to 7.00
--
compound: COc1cc(-c2ccc(NC3(C(=O)O)CCOCC3)cc2COCCC(C)C)c(F)c(OC)c1C
recorded metric: pIC50
measured value: > 7.00
--
compound: COc1cc(-c2ccc(NC3(C(=O)O)CCOCC3)cc2COC2CCCC2)c(F)c(OC)c1C(C)=O
recorded metric: pIC50
measured value: > 7.00
--
compound: COc1cc(-c2ccc(NC3(C(=O)O)CCCOC3)cc2COC2CCCC2)c(C)c(OC)c1C (single isomer, unassigned) [Compound 200]
recorded metric: pIC50
measured value: 6.00 to 7.00
--
compound: CCOc1cccc(-c2ccc(NC3(C(=O)O)CC3)cc2COC2CC2)c1C
recorded metric: pIC50
measured value: > 7.00

---

Entries and their IC50
- system: human LPA1 (Homo sapiens)
- Construct: expressed in transfected cells; host or cells: CHO-K1
- measurement notes: In vitro LPA1 calcium flux antagonist assay - Bioduro protocol
- Format: cell-based
- condition context: Table B3; CHO-K1 cells overexpressing human LPA1 and G15a, LPA challenge at EC80; read-out: Activity (IC50 class)

chemical string: COc1cc(-c2ccc(NC3(C(=O)O)CCN(C(C)=O)CC3)cc2COC2Cc3ccccc3C2)cc(OC)c1C
IC50: < 100 nM
--
chemical string: Cc1cccc(-c2ccc(NC3(C(=O)O)CCOCC3)cc2COC2CC2)c1F
IC50: > 1000 nM
--
chemical string: CCNc1cccc(-c2ccc(NC3(C(=O)O)CCOCC3)cc2COC2CCCC2)c1F
IC50: < 100 nM
--
chemical string: CCOc1c(C)c(OC)cc(-c2ccc(NC3(C(=O)O)CCOCC3)cc2COC2CC2)c1F
IC50: < 100 nM
--
chemical string: COc1cc(-c2ccc(NC3(C(=O)O)CC(F)(F)C3)cc2COC2Cc3ccccc3C2)cc(OC)c1C
IC50: < 100 nM
--
chemical string: COc1cc(OC2CC2)cc(-c2ccc(NC3(C(=O)O)CCOCC3)cc2COC2CCCC2)c1F
IC50: < 100 nM
--
chemical string: COc1cc(OC)c(F)c(-c2ccc(OC3(C(=O)O)CCOCC3)cc2COC2CCCC2)c1
IC50: 100 to 1000 nM
--
chemical string: COc1cc(OC)c(F)c(-c2ccc(NC3(C(=O)O)CCOCC3)cc2COC2CC2)c1
IC50: 100 to 1000 nM

---

- system: human LPA1 (Homo sapiens)
- Construct: expressed in transfected cells; host or cells: CHO-K1
- measurement notes: In vitro LPA1 calcium flux antagonist assay - Bioduro protocol
- Assay type: cell-based
- condition context: CHO-K1 cells overexpressing human LPA1 and G15a; LPA challenge at EC80; calcium mobilization on FLIPR Tetra; read-out: IC50
Decision: IC50 beneath 20 nM gives condition met; IC50 meeting or exceeding 20 nM gives condition not met.

compound: COc1cc(OC)c(C(F)F)c(-c2ccc(NC3(C(=O)O)CCOCC3)cc2COC2CCCC2)c1
system: human LPA1 (Homo sapiens)
assigned label: condition met
//
compound: CCOc1cncc(-c2ccc(NC3(C(=O)O)CCOCC3)cc2COC2CC2)c1C
system: human LPA1 (Homo sapiens)
assigned label: condition not met
//
compound: COc1cc(-c2c(F)cc(NC3(C(=O)O)CCOCC3)cc2COC2CCCC2)c(F)c(OC)c1C
system: human LPA1 (Homo sapiens)
assigned label: condition not met
//
compound: COc1cc(-c2ccc(NC3(C(=O)O)CCOCC3)cc2COC2CCCC2)cc(OC2CC2)c1C
system: human LPA1 (Homo sapiens)
assigned label: condition not met
//
compound: COc1cc(-c2ccc(NCCC(=O)O)cc2COC2Cc3ccccc3C2)cc(OC)c1C
system: human LPA1 (Homo sapiens)
assigned label: condition not met
//
compound: COCC(=O)N1CCC(Nc2cc(C)c(-c3cc(OC)cc(OC)c3)c(COC3CCCC3)c2)(C(=O)O)CC1
system: human LPA1 (Homo sapiens)
assigned label: condition not met
//
compound: COc1cc(-c2ccc(NC3(C(=O)O)CCC(O)CC3)cc2COC2CCCC2)cc(OC)c1C (stereo not shown)
system: human LPA1 (Homo sapiens)
assigned label: condition not met
//
compound: COc1cc(-c2ccc(NC3(C(=O)O)CCOCC3)cc2COC2COc3ccccc32)cc(OC)c1C (single isomer, unassigned) [Compound 217]
system: human LPA1 (Homo sapiens)
assigned label: condition not met
//
compound: CCOc1cc(OC)cc(-c2ccc(NC3(C(=O)O)CCOCC3)cc2COCC(C)C)c1F
system: human LPA1 (Homo sapiens)
assigned label: condition met
//
compound: COc1cc(-c2ccc(NC3(C(=O)O)CCOCC3)c(F)c2COC2CCCC2)c(F)c(OC)c1C
system: human LPA1 (Homo sapiens)
assigned label: condition not met
//
compound: COc1cc(OC2CC2)c(F)c(-c2ccc(NC3(C(=O)O)CCOCC3)cc2COC2CC2)c1
system: human LPA1 (Homo sapiens)
assigned label: condition met
//
compound: COc1cc(OC)nc(-c2c(C)cc(NC3(C(=O)O)CCOCC3)cc2COC2CCCC2)c1
system: human LPA1 (Homo sapiens)
assigned label: condition not met
//
compound: CCOc1cncc(-c2ccc(NC3(C(=O)O)CCOCC3)cc2COCCC(C)C)c1C(F)F
system: human LPA1 (Homo sapiens)
assigned label: condition met
//
compound: COc1cc(-c2ccc(NC3(C(=O)O)CCOCC3)cc2COC2CC2)c(C)c(OC)c1C
system: human LPA1 (Homo sapiens)
assigned label: condition met
//
compound: COc1cc(-c2ccc(NC3(C(=O)O)CCOCC3)cc2COC2CCCC2)c(F)c(OC)c1C(C)=O
system: human LPA1 (Homo sapiens)
assigned label: condition not met
//
compound: COc1cc(-c2ccc(NC3(C(=O)O)CCOCC3)cc2COCC2CCC2)c(F)c(OC)c1C
system: human LPA1 (Homo sapiens)
assigned label: condition met
//
compound: CCCCOCc1cc(NC2(C(=O)O)CCOCC2)ccc1-c1cc(OC)c(C)c(OC)c1C
system: human LPA1 (Homo sapiens)
assigned label: condition met
//
compound: COc1cc(-c2ccc(NC3(C(=O)O)CCOCC3)cc2COC2CCCC2)c(C(F)F)c(OC)n1
system: human LPA1 (Homo sapiens)
assigned label: condition met
//
compound: COc1cc(-c2ccc(NC3(C(=O)O)CCOCC3)cc2COC2Cc3ccccc3C2)cc(OC)c1C(C)=O
system: human LPA1 (Homo sapiens)
assigned label: condition met
//
compound: CCOc1cc(OC)cc(-c2ccc(NC3(C(=O)O)CCOCC3)cc2COC2CCCC2)c1F
system: human LPA1 (Homo sapiens)
assigned label: condition met
//
compound: COc1cc(OC)cc(-c2c(C)cc(NC3(C(=O)O)Cc4ccccc4C3)cc2COC2CCCC2)c1
system: human LPA1 (Homo sapiens)
assigned label: condition not met
//
compound: COC(=O)N1CCC(Nc2cc(C)c(-c3cc(C#N)cc(OC)c3)c(COC3CCCC3)c2)(C(=O)O)CC1
system: human LPA1 (Homo sapiens)
assigned label: condition not met
//
compound: COc1cc(-c2ccc(NC3(C(=O)O)CCOCC3)cc2COC2CCCC2)c(F)cc1C
system: human LPA1 (Homo sapiens)
assigned label: condition not met
//
compound: COC(=O)N1CC(Nc2ccc(-c3cc(OC)c(C)c(OC)c3C)c(COC3CCCC3)c2)(C(=O)O)C1
system: human LPA1 (Homo sapiens)
assigned label: condition not met
//
compound: CCOc1cc(OC)cc(-c2ccc(NC3(C(=O)O)CCOCC3)cc2COC2CCCC2)c1
system: human LPA1 (Homo sapiens)
assigned label: condition not met
//
compound: COc1cc(-c2ccc(NC3(C(=O)O)CCOCC3)cc2COC2Cc3ccccc3C2)cc(OC)c1C#N
system: human LPA1 (Homo sapiens)
assigned label: condition met
//
compound: COc1cc(OC)c(F)c(-c2ccc(NC3(C(=O)O)CCOCC3)cc2COC2CC2)c1
system: human LPA1 (Homo sapiens)
assigned label: condition not met
//
compound: COC(=O)N1CCC(Nc2cc(C)c(-c3cc(OC)ccn3)c(COC3CCCC3)c2)(C(=O)O)CC1
system: human LPA1 (Homo sapiens)
assigned label: condition not met
//
compound: CCOc1cccc(-c2ccc(NC3(C(=O)O)CCC(F)(F)CC3)cc2COC2CC2)c1C
system: human LPA1 (Homo sapiens)
assigned label: condition met
//
compound: CCOc1c(C)ncc(-c2ccc(NC3(C(=O)O)CCOCC3)cc2COC2CC2)c1C
system: human LPA1 (Homo sapiens)
assigned label: condition not met
//
compound: COc1cc(-c2ccc(OCCC(=O)O)cc2COC2Cc3ccccc3C2)cc(OC)c1C
system: human LPA1 (Homo sapiens)
assigned label: condition not met
